Value source: ChEMBL document CHEMBL4251575

For each record, write down the corresponding inhibition.
# Study Target: UniProt:P11388
# Measurement Notes: Inhibition of human DNA topoisomerase 2 alpha-mediated DNA relaxation at 20 uM incubated for 30 mins using pBR322 DNA substrate by ethidium bromide dye-based agarose gel electrophoresis
Write it as a number; the unit % goes unstated.

Query string: Sample COc1ccc(-c2cc3cc(C)ccc3c(-c3ccc(O)cc3)n2)cc1OC — what was its inhibition?
Result string: 0

Query string: GET /values?readout=inhibition&item= COc1cc(OC)cc(-c2cc3ccccc3c(-c3ccc(O)cc3)n2)c1
Result string: 40

Query string: Find the recorded inhibition belonging to COc1ccc(-c2cc3cc(C)ccc3c(-c3cccc(O)c3)n2)cc1OC and report it.
Result string: 0.4

Query string: Recorded inhibition of COc1ccc(-c2cc3cc(C)ccc3c(-c3ccc(OCCN(C)C)cc3)n2)cc1OC , please.
Result string: 15.3

Query string: What measured inhibition goes with COc1ccc(-c2cc3ccccc3c(-c3cccc(O)c3)n2)cc1 ?
Result string: 0

Query string: // query inhibition value for entry COc1ccc(-c2cc3cc(C)ccc3c(-c3cccc(OCCCN(C)C)c3)n2)c(C)c1
Result string: 10.5

Query string: What value of inhibition has been reported for the following compound? COc1ccc(-c2cc3cc(C)ccc3c(-c3cccc(OCCN(C)C)c3)n2)c(C)c1
Result string: 13.2

Query string: Tell me the measured inhibition of COc1cc(OC)cc(-c2cc3ccccc3c(-c3cccc(O)c3)n2)c1 , please.
Result string: 30.9

* * *

# Study Target: UniProt P11388
# Measurement Notes: Inhibition of human DNA topoisomerase 2 alpha-mediated DNA relaxation at 100 uM incubated for 30 mins using pBR322 DNA substrate by ethidium bromide dye-based agarose gel electrophoresis relative to control etoposide
For each record, write down the corresponding Ratio.

Query string: # Ratio lookup, item COc1ccc(-c2cc3cc(C)ccc3c(-c3cccc(N)c3)n2)c(C)c1
Result string: 0.06

Query string: What does the record list as Ratio for COc1cc(OC)cc(-c2cc3ccccc3c(-c3cccc(O)c3)n2)c1 ?
Result string: 0.59

Query string: Fill in the blank: the reported Ratio of COc1ccc(-c2cc3cc(C)ccc3c(-c3cccc(O)c3)n2)c(C)c1 is ____.
Result string: 0.2

Query string: Need Ratio of COc1ccc(-c2cc3cc(C)ccc3c(-c3ccc(OCCN(C)C)cc3)n2)cc1OC , thanks.
Result string: 1.24

Query string: Consider the molecule COc1ccc(-c2nc(-c3ccc(OC)c(OC)c3)cc3cc(C)ccc23)cc1 and give its measured Ratio.
Result string: 0

Query string: Quick check: Ratio of COc1ccc(-c2cc3ccccc3c(-c3cccc(N)c3)n2)cc1 ?
Result string: 0.12

Query string: Given the entry COc1ccc(-c2cc3ccccc3c(-c3cccc(OCCCN(C)C)c3)n2)cc1 , report its measured Ratio.
Result string: 0.32

Query string: Endpoint output: Ratio of COc1ccc(-c2cc3cc(C)ccc3c(-c3ccc(O)cc3)n2)cc1OC . Value?
Result string: 0.4

Query string: May I ask what Ratio has been recorded for COc1ccc(-c2cc3ccccc3c(-c3cccc(O)c3)n2)cc1 ?
Result string: 1.07

Query string: For COc1ccc(-c2cc3ccccc3c(-c3ccc(O)cc3)n2)cc1 , what is its reported Ratio?
Result string: 0

* * *

# Study Target: DNA topoisomerase 2-alpha (Homo sapiens) (UniProt P11388)
# Sequence (P11388 whole entry): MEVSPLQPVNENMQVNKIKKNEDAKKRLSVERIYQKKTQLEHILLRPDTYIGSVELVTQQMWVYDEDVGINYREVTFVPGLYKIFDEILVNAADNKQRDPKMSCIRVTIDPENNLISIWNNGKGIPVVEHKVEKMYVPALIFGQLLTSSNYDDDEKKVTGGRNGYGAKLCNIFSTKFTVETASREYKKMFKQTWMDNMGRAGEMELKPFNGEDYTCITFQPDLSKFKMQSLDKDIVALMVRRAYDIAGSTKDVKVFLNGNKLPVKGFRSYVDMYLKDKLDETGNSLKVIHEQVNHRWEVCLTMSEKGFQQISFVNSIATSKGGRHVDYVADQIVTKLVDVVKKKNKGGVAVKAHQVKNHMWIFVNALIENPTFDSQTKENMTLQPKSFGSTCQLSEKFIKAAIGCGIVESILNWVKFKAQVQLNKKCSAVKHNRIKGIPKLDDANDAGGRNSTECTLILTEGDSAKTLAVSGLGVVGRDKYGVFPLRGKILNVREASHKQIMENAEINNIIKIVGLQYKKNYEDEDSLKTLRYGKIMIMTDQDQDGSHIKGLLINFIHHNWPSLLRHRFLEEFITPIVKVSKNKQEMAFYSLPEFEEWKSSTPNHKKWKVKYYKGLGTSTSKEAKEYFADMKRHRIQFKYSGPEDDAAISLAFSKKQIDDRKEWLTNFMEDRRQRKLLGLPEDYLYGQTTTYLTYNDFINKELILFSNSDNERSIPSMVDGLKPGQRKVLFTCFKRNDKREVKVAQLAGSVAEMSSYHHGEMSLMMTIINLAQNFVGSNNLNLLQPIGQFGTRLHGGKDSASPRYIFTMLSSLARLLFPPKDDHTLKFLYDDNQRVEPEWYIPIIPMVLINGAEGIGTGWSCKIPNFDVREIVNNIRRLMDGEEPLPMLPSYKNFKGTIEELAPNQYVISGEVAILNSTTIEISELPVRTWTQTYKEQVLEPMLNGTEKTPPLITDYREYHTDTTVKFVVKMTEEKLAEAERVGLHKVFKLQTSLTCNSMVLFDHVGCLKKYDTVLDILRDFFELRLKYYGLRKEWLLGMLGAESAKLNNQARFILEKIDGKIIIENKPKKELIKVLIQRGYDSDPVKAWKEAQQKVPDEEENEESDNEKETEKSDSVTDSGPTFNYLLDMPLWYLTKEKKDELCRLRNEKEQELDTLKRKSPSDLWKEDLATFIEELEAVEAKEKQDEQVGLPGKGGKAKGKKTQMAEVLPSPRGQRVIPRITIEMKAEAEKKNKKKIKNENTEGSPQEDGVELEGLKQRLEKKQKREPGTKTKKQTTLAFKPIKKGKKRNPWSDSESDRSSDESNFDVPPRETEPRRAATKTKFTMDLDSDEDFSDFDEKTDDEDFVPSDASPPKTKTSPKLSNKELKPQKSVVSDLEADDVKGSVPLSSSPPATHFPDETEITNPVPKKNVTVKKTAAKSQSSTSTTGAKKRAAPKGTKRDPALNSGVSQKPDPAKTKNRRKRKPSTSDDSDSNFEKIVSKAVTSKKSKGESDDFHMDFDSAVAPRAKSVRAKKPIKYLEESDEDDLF
# Measurement Notes: Inhibition of human DNA topoisomerase 2 alpha-mediated DNA relaxation at 100 uM incubated for 30 mins using pBR322 DNA substrate by ethidium bromide dye-based agarose gel electrophoresis
Endpoint Name: inhibition
Note: state the figure and append the unit.

Query string: Which inhibition is reported for this molecule? COc1ccc(-c2nc(-c3ccc(OC)c(OC)c3)cc3cc(C)ccc23)cc1
Result string: 0%

Query string: For the molecule COc1ccc(-c2cc3ccccc3c(-c3cccc(OCCCN(C)C)c3)n2)cc1 , what inhibition is on record?
Result string: 20.2%

Query string: Any idea what inhibition was measured for COc1ccc(-c2cc3cc(C)ccc3c(-c3cccc(O)c3)n2)cc1OC ?
Result string: 34.5%

Query string: Bench note: what inhibition did COc1ccc(-c2cc3ccccc3c(-c3cccc(O)c3)n2)cc1 show?
Result string: 84.3%

Query string: // lookup inhibition for COc1ccc(-c2cc3ccccc3c(-c3cccc(OC)c3)n2)cc1
Result string: 0%

Query string: Entry COc1ccc(-c2cc3cc(C)ccc3c(-c3cccc(N)c3)n2)cc1OC : reported inhibition = ?
Result string: 6.9%

Query string: Given the molecule COc1ccc(-c2cc3cc(C)ccc3c(-c3cccc(O)c3)n2)c(C)c1 , what is its reported inhibition?
Result string: 12.3%
